# TARGET OF ASSAY: FAAH Human recombinant (Homo sapiens, UniProt O00519)
# Sequence (O00519 1-579): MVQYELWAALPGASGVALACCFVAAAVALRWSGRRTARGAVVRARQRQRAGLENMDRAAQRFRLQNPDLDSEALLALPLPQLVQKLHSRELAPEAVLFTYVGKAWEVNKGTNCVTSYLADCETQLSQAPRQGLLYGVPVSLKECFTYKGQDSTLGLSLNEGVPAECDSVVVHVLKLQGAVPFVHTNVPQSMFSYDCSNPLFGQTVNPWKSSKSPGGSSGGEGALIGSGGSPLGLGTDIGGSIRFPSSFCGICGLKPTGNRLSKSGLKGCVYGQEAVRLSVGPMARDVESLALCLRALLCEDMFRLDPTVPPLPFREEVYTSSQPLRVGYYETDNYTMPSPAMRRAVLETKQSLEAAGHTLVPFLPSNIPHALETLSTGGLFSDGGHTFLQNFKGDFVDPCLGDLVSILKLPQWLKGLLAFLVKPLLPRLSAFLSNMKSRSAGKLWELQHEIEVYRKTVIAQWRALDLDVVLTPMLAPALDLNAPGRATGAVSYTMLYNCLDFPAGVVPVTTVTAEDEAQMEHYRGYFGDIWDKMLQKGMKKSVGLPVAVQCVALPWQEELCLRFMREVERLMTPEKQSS
# ASSAY PROTOCOL: FAAH inhibition assay (fluorometric, AMC-AA substrate)
# CONDITION DESCRIPTION: human recombinant FAAH; mean ± SEM; i: inactive
pIC50: −log10 of the molar value.
ASSAY ENDPOINT: pIC50

Study these solved cases before continuing.
MOLECULE	ASSAY ENDPOINT	RESULT
O=C(O)C(Cc1ccccc1)Oc1ccc(NCc2ccccc2)cc1 (stereo not shown)	pIC50	< 4.00
O=C(/C=C/c1ccc(O)c(O)c1)O[C@H](Cc1ccc(O)c(O)c1)C(=O)O	pIC50	~4.00
O=C(Cc1ccccc1)c1ccc(O[C@@H](Cc2ccccc2)C(=O)O)cc1	pIC50	< 4.00

Now for another entry.
[ask] Value lookup for pIC50; key = "Oc1ccc(/C=C/c2cc(O)cc(O)c2)cc1"
[reply] 4.58

----------
# TARGET OF ASSAY: human PPARα (Homo sapiens, UniProt Q07869)
# Sequence (Q07869 239-466 limits assumed): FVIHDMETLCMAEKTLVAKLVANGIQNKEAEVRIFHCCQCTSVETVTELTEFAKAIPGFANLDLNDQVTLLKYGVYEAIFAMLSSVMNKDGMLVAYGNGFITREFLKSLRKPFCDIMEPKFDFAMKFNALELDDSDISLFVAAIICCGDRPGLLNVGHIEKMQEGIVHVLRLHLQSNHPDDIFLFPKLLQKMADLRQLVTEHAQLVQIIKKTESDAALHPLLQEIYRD
# ASSAY PROTOCOL: GAL4-PPARα-LBD transactivation (luciferase) assay in HepG2 cells
ASSAY ENDPOINT: EC50 (µM)

COMPOUND	TARGET OF ASSAY	UNIT ANNOTATION	EC50
CC(Oc1ccc(CCc2ccccc2)cc1)C(=O)O (racemic)	human PPARα (Homo sapiens, UniProt Q07869)	µM	17.6

(P) CC(Oc1ccc(Cc2ccccc2)cc1)C(=O)O (racemic) [Compound 13, (R,S)-2-(4-benzyl)-phenoxypropanoic acid]
(Q) O=C(O)COc1ccc(Cc2ccccc2)cc1
[ask] Which of these two has the smaller recorded EC50: P or Q ? Write down the label of the entry you select.
[reply] P
(P: 4.6 µM, Q: 24 µM)

Origin of the recorded values: paper PMC7582602
